Target: GPR3 (Homo sapiens)
Construct: expressed in transfected cells
Test: GloSensor cAMP assay in GPR3 stably expressing AD293 cell line (agonist mode)
Format: cell-based
Conditions: Table S3, WT receptor stable line, OA dose-response
PROPERTY_LABEL: EC50 (µM)
Numbers only, in µM.

Item: CCCCCCCC/C=C\CCCCCCCC(=O)O [OA, oleic acid] | EC50: 293

----------
Molecular target: GPR3 (Homo sapiens)
Construct: expressed in transfected cells
Experiment: GloSensor cAMP assay in GPR3 stably expressing AD293 cell line (agonist mode)
Type: cell-based
Details: cAMP assay
PROPERTY_LABEL: Emax compared to Emax of OA

CCCCCCCC/C=C\CCCCCCCC(N)=O [OLM, Oleamide]    half of the Emax of OA
CCCCCCCC/C=C\CCCCCCCC(=O)NCCO [OEA, oleoylethanolamide]    half of the Emax of OA

----------
Target: GPR3 (Homo sapiens)
Construct: expressed in transfected cells
Assay: GloSensor cAMP assay in GPR3 stably expressing AD293 cell line (agonist mode)
Format: cell-based
Conditions: cAMP induction, GPR3 stably expressing AD293
PROPERTY_LABEL: EC50 (µM)
Numbers only, in µM.

Consider the reported EC50 for these molecules:
CCCCCC/C=C\CCCCCCCC(=O)O    328
CCCCCCCC/C=C\CCCCCCCC(N)=O [OLM, Oleamide]    334
CCCCCCCC/C=C\CCCCCCCC(=O)NCCO [OEA, oleoylethanolamide]    336

Provide the reported EC50 of each entry below, same order.
1. CCCCCCCCCCCC(=O)O
2. CCCCCCCCCCCCCCCC(=O)O
3. CCCCCCCCCCCCCCCCCC(=O)O

1: 320; 2: 311; 3: 361

----------
Target: GPR3 (Homo sapiens, UniProt P46089)
Construct: expressed in transfected cells
Sequence (P46089 whole entry): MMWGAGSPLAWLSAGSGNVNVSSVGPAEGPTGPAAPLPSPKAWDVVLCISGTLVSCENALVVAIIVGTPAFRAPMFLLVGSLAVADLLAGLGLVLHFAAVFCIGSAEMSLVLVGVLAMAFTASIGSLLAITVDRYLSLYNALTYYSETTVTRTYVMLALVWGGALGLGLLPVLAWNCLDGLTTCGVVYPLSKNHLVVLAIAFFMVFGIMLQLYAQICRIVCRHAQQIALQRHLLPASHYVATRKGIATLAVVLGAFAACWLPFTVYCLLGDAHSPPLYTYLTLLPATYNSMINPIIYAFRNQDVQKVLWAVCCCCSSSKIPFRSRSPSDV
Assay: GloSensor cAMP assay in GPR3 stably expressing AD293 cell line (agonist mode)
Format: cell-based
Conditions: Table S2; relative cAMP level; at 500 μM (FA 12:0, 16:1, 18:0, OEA 18:1, OLM 18:1), 450 μM (FA 18:1), 400 μM (FA 16:0), 300 μM (FA 22:0, 18:2), 100 μM (FAME 18:0, FAEE 18:0, lysophospholipids), 3 μM (LTB4)
PROPERTY_LABEL: maximum response
Numbers only.

CCCCCCCC/C=C\CCCCCCCC(=O)O    164.1

Provide the reported maximum response of each entry below, same order.
1. CCCCCCCCCCCCCCCCCC(=O)OCC [ETS, ethyl stearate]
2. CCCCCC/C=C\CCCCCCCC(=O)O
3. CCCCCCCCCCCCCCCCCC(=O)O
4. CCCCCCCC/C=C\CCCCCCCC(=O)NCCO [OEA, oleoylethanolamide]

[0.6, 61.8, 44.8, 60.9]

Provide the reported maximum response of each entry below, same order.
1. CCCCCCCCCCCC(=O)O
2. CCCCCCCCCCCCC/C=C/[C@@H](O)[C@@H](N)COP(=O)(O)O [S1P, sphingosine-1-phosphate]

[204.5, 0.6]

Provide the reported maximum response of each entry below, same order.
1. CCCCCCCCCCCCCCCCCCCCCC(=O)O
2. CCCCCCCCCCCCCCCCCC(=O)OC [MES, methyl stearate]

[1.0, 0.9]
